STUDY TARGET: Histamine H3 receptor (Homo sapiens)
Sequence (Q9Y5N1 whole entry): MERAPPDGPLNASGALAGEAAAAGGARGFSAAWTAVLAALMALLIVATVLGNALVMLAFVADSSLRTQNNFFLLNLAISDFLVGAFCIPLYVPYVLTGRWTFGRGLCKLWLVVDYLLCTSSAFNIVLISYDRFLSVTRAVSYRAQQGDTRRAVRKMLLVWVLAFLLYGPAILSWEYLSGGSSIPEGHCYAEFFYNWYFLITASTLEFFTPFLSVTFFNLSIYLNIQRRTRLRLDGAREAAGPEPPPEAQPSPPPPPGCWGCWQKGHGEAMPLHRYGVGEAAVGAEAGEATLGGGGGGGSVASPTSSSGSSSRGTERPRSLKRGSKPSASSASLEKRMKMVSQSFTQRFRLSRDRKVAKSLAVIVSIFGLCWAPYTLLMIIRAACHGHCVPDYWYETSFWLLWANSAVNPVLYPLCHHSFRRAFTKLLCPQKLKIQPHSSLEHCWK
ASSAY SUMMARY: Intrinsic activity at human histamine H3 receptor expressed in sf9 cell membrane co-expressing mammalian Galphai2 and Gbeta1gamma2 at 10 uM incubated for 90 mins by [35S]GTPgammaS binding assay relative to histamine
Format: functional
PROPERTY MEASURED: Intrinsic activity
// keep it numeric: no unit symbol after the value

# annotated cases, reported Intrinsic activity shown
| MOLECULE | PROPERTY MEASURED | READING |
| --- | --- | --- |
| CC(C)CN/C(=N/C#N)NC[C@H]1CC[C@H](c2c[nH]cn2)C1 (racemic) | Intrinsic activity | 0.54 |
| N#C/N=C(/NCCOc1ccccc1)NC[C@H]1CC[C@H](c2c[nH]cn2)C1 (racemic) | Intrinsic activity | 0 |

Task: Provide only the value of recorded Intrinsic activity for CN1CCN(C(=O)c2cc3cc(Cl)ccc3[nH]2)CC1
Result: -0.56

Task: Quickly give me recorded Intrinsic activity for N#C/N=C(/NCCCc1ccccc1)NC[C@@H]1CC[C@H](c2c[nH]cn2)C1 (racemic)
Result: 0

Task: Return Intrinsic activity for the following molecule: N#C/N=C(\NC[C@H]1CC[C@H](c2c[nH]cn2)C1)NC1CC1 (racemic)
Result: 0.36

Task: In one line, give reported Intrinsic activity of the entry N#C/N=C(/NCCNc1ccccc1)NC[C@@H]1CC[C@H](c2c[nH]cn2)C1 (racemic) .
Result: 0

Task: For the molecule N#C/N=C(/NCCSc1ccccc1)NC[C@@H]1CC[C@H](c2c[nH]cn2)C1 (racemic) , give its reported Intrinsic activity.
Result: -0.34

Task: Please supply the value of reported Intrinsic activity for the item N#C/N=C(/NCCSc1ccccc1)NC[C@@H]1CC[C@@H](c2c[nH]cn2)C1
Result: -0.21

Task: Please give measured Intrinsic activity of the following entry: N#C/N=C(/NCCNc1ccccc1)NC[C@H]1CC[C@H](c2c[nH]cn2)C1 (racemic)
Result: 0
